Cited source: paper PMC3226492

assay: Transplacental transfer efficiency (TTE): cord serum at delivery divided by maternal serum concentration, present study
Type: in vivo, human
testContext: cord serum at delivery / maternal serum at 15 weeks of gestation
measurementType: TTE calculated from cord:maternal serum concentrations, minimum

// solved cases for TTE calculated from cord:maternal serum concentrations, minimum follow
molecule	recordedResult
O=C(O)C(F)(F)C(F)(F)C(F)(F)C(F)(F)C(F)(F)C(F)(F)C(F)(F)F [Total PFOA, perfluorooctanoate]	0.32
O=S(=O)(O)C(F)(F)C(F)(F)C(F)(F)C(F)(F)C(F)(F)C(F)(F)C(F)(F)C(F)(F)F [Total PFOS, perfluorooctane sulfonate]	0.20
O=S(=O)(O)C(F)(F)C(F)(F)C(F)(C(F)(F)F)C(F)(F)C(F)(F)C(F)(F)C(F)(F)F (stereo not shown)	0.21
O=C(O)C(F)(F)C(F)(F)C(F)(F)C(F)(F)C(F)(F)C(F)(F)C(F)(F)C(F)(F)F [Total PFNA, perfluorononanoate]	0.13
O=S(=O)(O)C(F)(F)C(F)(F)C(F)(F)C(F)(C(F)(F)F)C(F)(F)C(F)(F)C(F)(F)F (stereo not shown)	0.20

Suppose we examine the molecule O=C(O)C(F)(F)C(F)(F)C(F)(F)C(F)(F)C(F)(C(F)(F)F)C(F)(F)F ; what TTE calculated from cord:maternal serum concentrations, minimum value has been reported?
0.16

Fill in: TTE calculated from cord:maternal serum concentrations, minimum of O=C(O)C(F)(F)C(F)(C(F)(F)F)C(F)(F)C(F)(F)C(F)(F)C(F)(F)F (stereo not shown) is ___
0.07
